- Test system: LN229 human glioblastoma cell line
- Procedure Text: Cell viability (MTT assay), LN229
- Assay type: cell-based
- Assay Setup: 25 μM, 72 hrs, MTT
Assay Readout: anti-glioblastoma activity / relative potency

CC(C)OC(=O)C(C)(C)Oc1cccc(C(=O)c2ccccc2)c1	virtually inactive
CC(C)OC(=O)C(C)(C)Oc1ccc(C(=O)c2ccccc2)cc1	virtually inactive

###

- Test system: LN229 human glioblastoma cell line
- Procedure Text: Cell viability (MTT assay), LN229
- Format: cell-based
- Assay Setup: 5 μM, MTT
Assay Readout: CV = Cell viability (% of control)

CC(C)(Oc1ccc(C(=O)c2ccc(Cl)cc2)cc1)C(=O)N1CCC(N2CCOCC2)CC1 [H37]	75.02±1.42 % of control
CN(CCO)C(=O)C(C)(C)Oc1ccc(C(=O)c2ccc(Cl)cc2)cc1 [PP1]	70.03±2.04 % of control
CC(C)(Oc1ccc(C(=O)c2ccc(Cl)cc2)cc1)C(=O)N(CCO)CCO [H46]	86.15±8.50 % of control
CN1CCN(C(=O)C(C)(C)Oc2ccc(C(=O)c3ccc(Cl)cc3)cc2)CC1.Cl [H35]	79.34±1.70 % of control
CC(C)(C)OC(=O)NCCCCNC(=O)C(C)(C)Oc1ccc(C(=O)c2ccc(Cl)cc2)cc1 [H28]	65.90±2.82 % of control
CC(C)(Oc1ccc(C(=O)c2ccc(Cl)cc2)cc1)C(=O)N1CCC([NH+]2CCOCC2)CC1.[Cl-] [H38]	74.89±1.79 % of control

###

- Procedure Text: PP1 tissue distribution after oral administration (HPLC)
- Format: in vivo, C57BL/6 mice
- Assay Setup: C57BL/6, mouse, brain tumor tissue, po, 25 mg/kg; orally administered, mice; read-out: HPLC-measured concentration in the brain tumor tissues
Assay Readout: concentration at 14 days

CN(CCO)C(=O)C(C)(C)Oc1ccc(C(=O)c2ccc(Cl)cc2)cc1 [PP1]	5 to 6 µM

###

- Test system: LN229 human glioblastoma cell line
- Procedure Text: Cell viability (MTT assay), LN229
- Assay type: cell-based
- Assay Setup: 10 μM, MTT
Assay Readout: CV = Cell viability (% of control)

CC(C)(Oc1ccc(C(=O)c2ccc(Cl)cc2)cc1)C(=O)N1CCC(N2CCOCC2)CC1 [H37]	47.02±1.23 % of control
CN(CCO)C(=O)C(C)(C)Oc1ccc(C(=O)c2ccc(Cl)cc2)cc1 [PP1]	43.67±1.88 % of control
CC(C)(Oc1ccc(C(=O)c2ccc(Cl)cc2)cc1)C(=O)N(CCO)CCO [H46]	51.97±10.27 % of control
CC(C)(C)OC(=O)NCCCCNC(=O)C(C)(C)Oc1ccc(C(=O)c2ccc(Cl)cc2)cc1 [H28]	38.31±3.50 % of control
CC(C)(Oc1ccc(C(=O)c2ccc(Cl)cc2)cc1)C(=O)N1CCC([NH+]2CCOCC2)CC1.[Cl-] [H38]	52.00±1.86 % of control
CN1CCN(C(=O)C(C)(C)Oc2ccc(C(=O)c3ccc(Cl)cc3)cc2)CC1.Cl [H35]	56.26±0.59 % of control

# credit: patent US20220304957A1
